# assay_notes: Solubility of Form I and free base compound 4-3 (visual and HPLC assay of filtrate)
# Assay type: physicochemical
# condition_set: pH 8 medium, pH 8, aqueous buffer, thermodynamic from solid, pH 8 medium; target conc. 2.0 mg/mL; 24 hours ambient; 0.45-μm filtrate; read-out: HPLC Solubility
reported_property: solubility at 24 h

QUERY: So what does the record say about solubility at 24 h for `CC[C@H](C)[C@H](NC(=O)OC)C(=O)N1CCC[C@H]1c1nc2ccc(-c3ccc4cc(-c5cnc([C@@H]6CCCN6C(=O)[C@@H](NC(=O)OC)[C@@H](C)OC)[nH]5)ccc4c3)cc2[nH]1` ?
RESULT: < 1 µg/mL

* * *

# assay_notes: PK study of Form A of Compound I in rats
# Type: in vivo
# condition_set: male, Sprague-Dawley, rat, plasma, po, 75 mg/kg, single PO dose of 75 mg/kg, male SD rats, 24 hr, Rat #3; read-out: plasma concentration
reported_property: concentration at 24 h
State the value, then name its unit.

QUERY: For the compound COC(=O)N[C@H](C(=O)N1CCC[C@H]1c1ncc(-c2ccc3cc(-c4ccc5nc([C@@H]6CCCN6C(=O)[C@@H](NC(=O)OC)C(C)C)[nH]c5c4)ccc3c2)[nH]1)C(C)C [Form A of Compound I] , what concentration at 24 h is on record?
RESULT: 8.15 ng/mL

* * *

# assay_notes: PK study of Form A of Compound I in rats
# Assay type: in vivo
# condition_set: male, Sprague-Dawley, rat, plasma, po, 75 mg/kg, single PO dose of 75 mg/kg, male SD rats, 12 hr, Rat #3; read-out: plasma concentration
# Protocol: The pharmacokinetics (PK) properties of Form A of Compound I and Form I of Compound II were determined in a series of comprehensive experiments in preclinical species including Sprague-Dawley rats, beagle dogs, cynomolgus monkeys. […] For the validated assay in rat and monkey EDTA plasma, the Lower Limit of Quantitation (LLOQ) for both compound 1 and 2 was 5.00 ng/mL, and the assay was linear from 5.00-1,000 ng/mL. […]
reported_property: concentration at 12 h
Number plus unit, in that order.

QUERY: I'd like to know its concentration at 12 h. The compound in question is COC(=O)N[C@H](C(=O)N1CCC[C@H]1c1ncc(-c2ccc3cc(-c4ccc5nc([C@@H]6CCCN6C(=O)[C@@H](NC(=O)OC)C(C)C)[nH]c5c4)ccc3c2)[nH]1)C(C)C [Form A of Compound I]
RESULT: 63.6 ng/mL

* * *

# assay_notes: PK study of Form A of Compound I in rats
# Assay type: in vivo
# condition_set: male, Sprague-Dawley, rat, plasma, po, 75 mg/kg, single PO dose of 75 mg/kg, male SD rats, 2 hr, Rat #2; read-out: plasma concentration
reported_property: concentration at 2 h (ng/mL)
Answers are plain numbers, in ng/mL.

QUERY: Request the reported concentration at 2 h associated with COC(=O)N[C@H](C(=O)N1CCC[C@H]1c1ncc(-c2ccc3cc(-c4ccc5nc([C@@H]6CCCN6C(=O)[C@@H](NC(=O)OC)C(C)C)[nH]c5c4)ccc3c2)[nH]1)C(C)C [Form A of Compound I]
RESULT: 7890

* * *

# assay_notes: PK study of Form A of Compound I in dogs
# Assay type: in vivo
# condition_set: beagle, dog, plasma, po, 75 mg/kg, PO dose of 75 mg/kg, 24 hr, Dog #2, read-out: plasma concentration
reported_property: concentration at 24 hr (ng/mL)
Give bare numbers, in ng/mL.

QUERY: Form field: reported concentration at 24 hr of COC(=O)N[C@H](C(=O)N1CCC[C@H]1c1ncc(-c2ccc3cc(-c4ccc5nc([C@@H]6CCCN6C(=O)[C@@H](NC(=O)OC)C(C)C)[nH]c5c4)ccc3c2)[nH]1)C(C)C [Form A of Compound I]
RESULT: 2160
